tested on: VDR homodimer (NR concentration 270 nM); assay: PBM binding z-score (relative to random genomic background probes); higher = stronger binding; sequences stand for … in GC…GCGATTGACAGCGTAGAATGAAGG
Entries and their PBM binding z-score
Reply briefly: the number, and no unit.

Study these solved cases before continuing.
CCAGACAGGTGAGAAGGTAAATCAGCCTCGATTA -0.437
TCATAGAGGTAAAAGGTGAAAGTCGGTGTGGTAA -0.219
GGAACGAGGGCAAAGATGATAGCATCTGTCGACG 0.578
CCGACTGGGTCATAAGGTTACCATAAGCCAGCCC 0.993
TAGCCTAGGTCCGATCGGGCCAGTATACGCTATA -0.952

Prompt: # return recorded PBM binding z-score for entry `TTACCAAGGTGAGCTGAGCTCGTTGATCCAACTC`
Response: -0.959

Prompt: Supply recorded PBM binding z-score for `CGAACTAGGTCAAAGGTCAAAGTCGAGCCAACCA` here.
Response: 3.66

Prompt: Indicate the recorded PBM binding z-score value for this sequence: `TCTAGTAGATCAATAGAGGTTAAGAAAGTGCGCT`
Response: 0.312

###

test system: PPARg:RXRa DBDmut IVT, anti-RXR (DBD mutation: RXRa K156A/R161A, NR concentration 270 nM, RXRa partner concentration 90 nM); assay: PBM binding z-score (relative to random genomic background probes); higher = stronger binding; sequences stand for … in GC…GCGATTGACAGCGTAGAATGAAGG
ASSAY ENDPOINT: PBM binding z-score
Write the value as a bare number.

Example cases with answers are listed next.
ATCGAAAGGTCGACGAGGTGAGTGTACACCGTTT 1.06
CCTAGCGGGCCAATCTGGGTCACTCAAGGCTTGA 3.83
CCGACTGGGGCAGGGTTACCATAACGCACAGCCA 1.51
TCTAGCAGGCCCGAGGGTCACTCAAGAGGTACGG 0.262
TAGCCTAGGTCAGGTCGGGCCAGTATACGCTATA 0.315
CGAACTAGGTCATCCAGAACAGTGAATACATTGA 8.45

Prompt: Fill in reported PBM binding z-score for this entry: `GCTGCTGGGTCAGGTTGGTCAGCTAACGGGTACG`
Response: 1.8

###

test system: RARb homodimer (NR concentration 270 nM); test: PBM binding z-score (relative to random genomic background probes); higher = stronger binding; sequences stand for … in GC…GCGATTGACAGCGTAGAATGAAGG
ASSAY ENDPOINT: PBM binding z-score
Write the number on its own, no unit after it.

Prompt: # return recorded PBM binding z-score for input `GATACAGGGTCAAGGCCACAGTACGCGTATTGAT`
Response: 3.85

Prompt: Look up PBM binding z-score of `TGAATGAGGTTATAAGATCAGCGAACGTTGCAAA` and report it.
Response: 0.0466

Prompt: Give reported PBM binding z-score value for `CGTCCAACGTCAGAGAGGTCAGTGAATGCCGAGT`
Response: 3.88

Prompt: Quote PBM binding z-score reported for `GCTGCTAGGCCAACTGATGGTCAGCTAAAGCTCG` please.
Response: 0.279

Prompt: Give PBM binding z-score for `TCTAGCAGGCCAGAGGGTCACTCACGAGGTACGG`
Response: 2.69

Prompt: Output PBM binding z-score of `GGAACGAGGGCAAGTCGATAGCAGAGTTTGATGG`
Response: 1.18

Prompt: Supply measured PBM binding z-score of `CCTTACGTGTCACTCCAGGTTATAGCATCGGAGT` in your reply.
Response: 1.36

Prompt: Indicate its recorded PBM binding z-score; the sequence in question is `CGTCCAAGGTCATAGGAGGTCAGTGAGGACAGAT`
Response: 5.13

Prompt: // Input: `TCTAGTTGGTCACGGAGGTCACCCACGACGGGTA` . Output its PBM binding z-score only.
Response: 4.51

Prompt: Determine its reported PBM binding z-score: `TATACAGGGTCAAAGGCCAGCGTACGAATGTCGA`
Response: 3.48

Prompt: Please list PBM binding z-score recorded for the sequence `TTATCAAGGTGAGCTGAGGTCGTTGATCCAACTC`
Response: 1.62
